Where do these numbers come from? They come from FireProtDB (doi:10.1074/jbc.m110728200).

heat capacity change of unfolding for assorted variants
B1: Lysozyme C, P61626 (parent)
chain: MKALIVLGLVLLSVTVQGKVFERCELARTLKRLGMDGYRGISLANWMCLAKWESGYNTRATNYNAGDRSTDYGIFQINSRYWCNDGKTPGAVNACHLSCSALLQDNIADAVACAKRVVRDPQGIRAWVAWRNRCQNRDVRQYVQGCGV

variants of: B1; conditions: Homo sapiens; pH 2.7; 64.9 °C; Thermal; DSC; Gly-HCl 0.05 M; structure 1LZ1; whole UniProt chain shown

{"mutant": "V92N", "heat capacity change of unfolding / kcal/mol/K": 1.1}
{"mutant": "V20S", "heat capacity change of unfolding / kcal/mol/K": 1.55}
{"mutant": "V92Y", "heat capacity change of unfolding / kcal/mol/K": 1.65}
{"mutant": "V20R", "heat capacity change of unfolding / kcal/mol/K": 1.41}
{"mutant": "V92R", "heat capacity change of unfolding / kcal/mol/K": 1.67}
{"mutant": "V20Y", "heat capacity change of unfolding / kcal/mol/K": 1.82}
{"mutant": "V20D", "heat capacity change of unfolding / kcal/mol/K": 1.58}
{"mutant": "V92S", "heat capacity change of unfolding / kcal/mol/K": 1.22}
{"mutant": "V92D", "heat capacity change of unfolding / kcal/mol/K": 1.58}
{"mutant": "V20N", "heat capacity change of unfolding / kcal/mol/K": 1.7}
